System: affinity purified β2GPI-dependent antiphospholipid antibody
Experiment: Competitive inhibition ELISA: recombinant β2GPI proteins compete for antibody binding to coated full length recombinant β2GPI
Parameters: species or system human
Settings: Ab 6652
Readout Kind: Max (maximum inhibition observed at concentrations tested) (%)
Numeric answer only, unit % assumed.

Reference set, count: 2
INSERT INTO results (molecule, experimental_result) VALUES
  ('--345: recombinant β2GPI deletion mutant with domains 3, 4, 5 (protein) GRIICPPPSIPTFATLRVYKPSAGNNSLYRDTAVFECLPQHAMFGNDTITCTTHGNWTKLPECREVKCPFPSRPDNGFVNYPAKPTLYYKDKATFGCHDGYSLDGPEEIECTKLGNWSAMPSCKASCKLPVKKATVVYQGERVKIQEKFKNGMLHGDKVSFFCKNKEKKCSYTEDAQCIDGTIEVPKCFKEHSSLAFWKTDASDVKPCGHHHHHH', 30),
  ('1234-: recombinant β2GPI deletion mutant with domains 1, 2, 3, 4 (protein) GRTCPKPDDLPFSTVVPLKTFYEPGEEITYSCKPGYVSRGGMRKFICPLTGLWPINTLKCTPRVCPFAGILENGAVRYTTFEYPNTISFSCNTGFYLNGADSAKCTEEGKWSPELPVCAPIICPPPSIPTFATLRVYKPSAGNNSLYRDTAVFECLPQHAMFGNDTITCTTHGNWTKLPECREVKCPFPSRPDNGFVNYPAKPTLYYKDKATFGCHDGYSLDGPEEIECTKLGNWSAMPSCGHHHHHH', 100);

Asked: What measured Max (maximum inhibition observed at concentrations tested) goes with ---45: recombinant β2GPI deletion mutant with domains 4, 5 (protein) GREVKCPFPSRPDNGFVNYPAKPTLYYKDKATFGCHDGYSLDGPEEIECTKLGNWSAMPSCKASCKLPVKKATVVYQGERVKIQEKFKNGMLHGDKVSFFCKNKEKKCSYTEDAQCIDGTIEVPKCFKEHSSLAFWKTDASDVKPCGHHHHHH ?
Given back: 20

Asked: What measured Max (maximum inhibition observed at concentrations tested) goes with 123--: recombinant β2GPI deletion mutant with domains 1, 2, 3 (protein) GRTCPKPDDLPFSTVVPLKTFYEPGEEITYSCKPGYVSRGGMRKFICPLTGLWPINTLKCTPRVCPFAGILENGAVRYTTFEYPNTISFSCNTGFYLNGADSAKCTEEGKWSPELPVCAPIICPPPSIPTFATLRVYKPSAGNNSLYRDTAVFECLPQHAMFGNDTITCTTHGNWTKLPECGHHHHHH ?
Given back: 95
